Where do the numbers come from? From PubChem BioAssay (NCI).

system: HCT-116 colon; experiment: NCI tumour cell line growth inhibition, 48 h
Measured Property: GI50

Molecule: CC1(C)N=C(N)N=C(N)N1c1ccc(OCCCCNC(=O)Nc2cccc(S(=O)(=O)F)c2)c(Cl)c1
Target Under Test: HCT-116 colon
Measured Property: GI50
Observed Result: 594 nM

Molecule: CC(C)C/C(=N\NC(=O)c1ccncc1)c1cc(Cl)ccc1O
Target Under Test: HCT-116 colon
Measured Property: GI50
Observed Result: 244 nM

Molecule: N#Cc1cccc(C2C3=C(COC3=O)N(CCO)c3cc4c(cc32)CCC4)c1 (stereo not drawn)
Target Under Test: HCT-116 colon
Measured Property: GI50
Observed Result: 143 nM

Molecule: CC1(C)CC(O)CC(C)(C)N1.CC1(C)CC(O)CC(C)(C)N1.CC1(C)CC(O)CC(C)(C)N1.CC1(C)CC(O)CC(C)(C)N1.Cl.[Ti]
Target Under Test: HCT-116 colon
Measured Property: GI50
Observed Result: > 100000 nM

Molecule: CCN(CC)CCS(=O)(=O)CCNc1ccnc2cc(Cl)ccc12
Target Under Test: HCT-116 colon
Measured Property: GI50
Observed Result: 834 nM

Molecule: Nc1c(C(=O)Nc2ccccn2)sc2nc3c(cc12)CCCCCC3
Target Under Test: HCT-116 colon
Measured Property: GI50
Observed Result: 225 nM

Molecule: O=C1C2C(C(=O)N1CC[Se][Se]CCN1C(=O)C3C(C1=O)[C@H]1C=C[C@@H]3C1)[C@H]1C=C[C@@H]2C1 (stereo partly drawn)
Target Under Test: HCT-116 colon
Measured Property: GI50
Observed Result: 409 nM

Molecule: C=C(C)[C@@H]1CC[C@]2(C(=O)n3ccnc3)CC[C@]3(C)[C@H](CC[C@@H]4[C@@]5(C)CCCNC(C)(C)[C@@H]5CC[C@]43C)[C@@H]12
Target Under Test: HCT-116 colon
Measured Property: GI50
Observed Result: 1030 nM

Molecule: Nc1n[nH]c2ccc([C@@H]3Nc4c(F)cc5[nH]ncc5c4[C@H]4C5CCC(C5)[C@@H]34)cc12 (stereo partly drawn)
Target Under Test: HCT-116 colon
Measured Property: GI50
Observed Result: 293 nM

Molecule: O=C(Nc1nc2c(s1)CCc1c-2c(Br)n(Cc2ccccc2)c1Br)c1ccccc1
Target Under Test: HCT-116 colon
Measured Property: GI50
Observed Result: 3980 nM

Molecule: CCN(CC)C(=S)SSCCO
Target Under Test: HCT-116 colon
Measured Property: GI50
Observed Result: 14600 nM

Molecule: CN(C)CCS(=O)(=O)Nc1cc(-c2ccc3ncnc(Nc4ccc(F)c(Cl)c4)c3c2)cnc1Cl
Target Under Test: HCT-116 colon
Measured Property: GI50
Observed Result: 829 nM

Molecule: Cc1ccc(C(=O)N2C/C(=C/c3ccccc3)C(=O)/C(=C/c3ccccc3)C2)cc1
Target Under Test: HCT-116 colon
Measured Property: GI50
Observed Result: 226 nM

Molecule: Cc1nn2c(-c3nc4cc(Cl)c(Cl)cc4[nH]3)c(-c3ccc(F)cc3)nc2s1
Target Under Test: HCT-116 colon
Measured Property: GI50
Observed Result: 1300 nM

Molecule: CCOC(=O)c1cc2cc(OCc3ccccc3)ccc2[nH]1
Target Under Test: HCT-116 colon
Measured Property: GI50
Observed Result: > 100000 nM

Molecule: CCN(CC)Cc1cc(Nc2cc(C(F)(F)F)c(C#N)c3nc4ccccc4n23)ccc1O
Target Under Test: HCT-116 colon
Measured Property: GI50
Observed Result: 1600 nM

Molecule: O=C(Nc1cccc(-n2cc(-c3ccncc3)c(-c3ccc(O)c(Cl)c3)n2)c1)Nc1ccc(Cl)c(Cl)c1
Target Under Test: HCT-116 colon
Measured Property: GI50
Observed Result: 1830 nM

Molecule: Cc1ccc(NC2=CC(=O)C(=O)c3ccccc32)c(C)c1
Target Under Test: HCT-116 colon
Measured Property: GI50
Observed Result: 1660 nM
